Tested On: T1, recombinant mouse sortilin (mouse, UniProt Q6PHU5 74-754)
T1 chain: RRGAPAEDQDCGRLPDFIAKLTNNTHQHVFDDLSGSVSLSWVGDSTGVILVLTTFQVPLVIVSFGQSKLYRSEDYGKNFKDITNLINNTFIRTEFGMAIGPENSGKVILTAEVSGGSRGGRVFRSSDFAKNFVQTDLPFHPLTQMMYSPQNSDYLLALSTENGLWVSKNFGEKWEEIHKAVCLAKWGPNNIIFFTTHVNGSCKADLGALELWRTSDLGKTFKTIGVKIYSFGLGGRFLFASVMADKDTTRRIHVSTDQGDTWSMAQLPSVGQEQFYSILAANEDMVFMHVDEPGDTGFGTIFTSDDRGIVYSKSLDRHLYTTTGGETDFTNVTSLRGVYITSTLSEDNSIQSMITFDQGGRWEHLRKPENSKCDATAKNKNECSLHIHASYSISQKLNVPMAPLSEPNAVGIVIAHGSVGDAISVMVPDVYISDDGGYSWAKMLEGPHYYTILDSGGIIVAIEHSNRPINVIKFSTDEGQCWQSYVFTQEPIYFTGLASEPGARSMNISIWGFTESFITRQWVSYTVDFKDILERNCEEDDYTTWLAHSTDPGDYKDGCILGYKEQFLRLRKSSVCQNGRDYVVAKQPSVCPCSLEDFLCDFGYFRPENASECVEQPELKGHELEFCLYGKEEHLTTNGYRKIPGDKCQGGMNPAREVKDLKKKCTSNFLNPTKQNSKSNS
Assay Comment: SPR
pKd: −log10 of the molar value.
Observation Type: pKd

Consider the following illustrative entries.
>  <Binder>
recombinant IFN-γ (ligand) HGTVIESLESLNNYFNSSGIDVEEKSLFLDIWRNWQKDGDMKILQSQIISFYLRLFEVLKDNQAISNNISVIESHLITTFFSNSKAKKDAFMSIAKFEVNNPQVQRQAFNELIRVVHQLLPESSLRKRKRSRC

>  <Endpoint Value>
5.59

$$$$
>  <Binder>
recombinant IL-10 (ligand) SRGQYSREDNNCTHFPVGQSHMLLELRTAFSQVKTFFQTKDQLDNILLTDSLMQDFKGYLGCQALSEMIQFYLVEVMPQAEKHGPEIKEHLNSLGEKLKTLRMRLRRCHRFLPCENKSKAVEQVKSDFNKLQDQGVYKAMNEFDIFINCIEAYMMIKMKS

>  <Endpoint Value>
6.54

$$$$
>  <Binder>
recombinant IL-6 (ligand) FPTSQVRRGDFTEDTTPNRPVYTTSQVGGLITHVLWEIVEMRKELCNGNSDCMNNDDALAENNLKLPEIQRNDGCYQTGYNQEICLLKISSGLLEYHSYLEYMKNNLKDNKKDKARVLQRDTETLIHIFNQEVKDLHKIVLPTPISNALLTDKLESQKEWLRTKTIQFILKSLEEFLKVTLRSTRQT

>  <Endpoint Value>
5.96

$$$$

I. recombinant IL-17A (ligand) AAIIPQSSACPNTEAKDFLQNVKVNLKVFNSLGAKVSSRRPSDYLNRSTSPWTLHRNEDPDRYPSVIWEAQCRHQRCVNAEGKLDHHMNSVLIQQEILVLKREPESCPFTFRVEKMLVGVGCTCVASIVRQAA
II. GST-fused mouse IFN-α (ligand) CDLPHTYNLRNKRALKVLAQMRRLPFLSCLKDRQDFGFPLEKVDNQQIQKAQAIPVLRDLTQQTLNLFTSKASSAAWNATLLDSFCNDLHQQLNDLQTCLMQQVGVQEPPLTQEDALLAVRKYFHRITVYLREKKHSPCAWEVVRAEVWRALSSSVNLLPRLSEEKE
Which value of pKd is greater, the one for I or the one for II ? Mark your selection by writing its label.
I
(I: 6.48, II: 6.26)
